System: Bacillus subtilis
ASSAY_REMARKS: Antimicrobial activity against Bacillus subtilis ATCC 6633 at 100 ug/ml after 24 hrs by agar well diffusion assay
Type: functional
REPORTED_CONDITIONS: ATCC 6633, 24 h, read-out: DIZ
METRIC_NAME: zone of inhibition at 100 µg/mL
Just the number plus its unit, please.

Cc1ccc(-n2nnc(C3=NN(c4nc(-c5ccc(Br)cc5)cs4)C(c4ccc(F)cc4)C3)c2C)cc1 (stereo not given)
26 mm
Cc1ccc(-n2nnc(C(=O)/C=C/c3ccc(F)cc3)c2C)cc1
26 mm
Cc1ccc(-n2nnc(C(=O)/C=C/c3ccc(N4CCCCC4)cc3)c2C)cc1
18 mm
Cc1ccc(-n2nnc(C(=O)/C=C/c3ccccc3)c2C)cc1
26 mm

Query: Sample Cc1ccc(-n2nnc(C3=NNC(c4ccc(C#N)cc4)C3)c2C)cc1 (stereo not given) — what was its zone of inhibition at 100 µg/mL?
Reply: 26 mm

Source: ChEMBL document CHEMBL2021863
